- Protocol Summary: Selectivity ratio of Kd for binding affinity to 5'FAM-labeled Precursor microRNA-372 (unknown origin) in presence of DNA to Kd for binding affinity to 5'FAM-labeled Precursor microRNA-372 (unknown origin)
Property Name: Selectivity ratio

Answered examples (4):
N[C@@H]1C[C@H](N)[C@@H](OCCn2cc(Cn3cnc(-c4cccc(NC(=O)c5ccc6ccccc6c5)c4)c3)nn2)[C@H](O)[C@H]1O    1.3
CCCCNC(=O)Nc1cccc(-c2cn(Cc3cn(C[C@H]4O[C@@H](O[C@@H]5[C@@H](O)[C@H](N)C[C@H](N)[C@H]5O[C@H]5O[C@H](CN)[C@@H](O)[C@H](O)[C@H]5N)[C@H](O)[C@@H]4O[C@H]4O[C@@H](CN)[C@@H](O)[C@H](O)[C@H]4N)nn3)cn2)c1    1.5
Nc1cccc(-c2cn(Cc3cn(CCO[C@H]4[C@H](O)[C@@H](O)[C@H](N)C[C@@H]4N)nn3)cn2)c1    1.2
CCCCNC(=O)Nc1cccc(-c2cn(Cc3cn(CCO[C@H]4[C@H](O)[C@@H](O)[C@H](N)C[C@@H]4N)nn3)cn2)c1    1.3

(I) Nc1ncnc2c1ncn2Cc1cn(CCO[C@H]2[C@H](O)[C@@H](O)[C@H](N)C[C@@H]2N)nn1
(II) N[C@@H]1C[C@H](N)[C@@H](OCCn2cc(CCC(=O)NCC(=O)Nc3nc(-c4ccccc4)cs3)nn2)[C@H](O)[C@H]1O
(III) NC[C@@H]1O[C@H](O[C@H]2[C@@H](O)[C@H](O[C@@H]3[C@@H](O)[C@H](N)C[C@H](N)[C@H]3O[C@H]3O[C@H](CN)[C@@H](O)[C@H](O)[C@H]3N)O[C@@H]2Cn2cc(Cn3cnc(-c4cccc(NC(=O)c5ccccc5)c4)c3)nn2)[C@H](N)[C@@H](O)[C@@H]1O
Sort (3 compounds) by Selectivity ratio: min first. Use the labels to give the requested order.
III, II, I
(III: 1.3, II: 2.1, I: 4.2)
